Target: Human immunodeficiency virus type 1 protease (Human immunodeficiency virus 1, UniProt Q72874)
pIC50: −log10 of the molar value.
PROPERTY_LABEL: pIC50

1. O=c1oc(-c2ccc(O)cc2)cc(O)c1SCc1ccccc1; 6.16
2. O=c1oc(-c2cccc(Cl)c2)cc(O)c1SCc1ccccc1; 6.16

Source: BindingDB's records for doi:10.1016/0960-894X(96)00185-0
